- Test system: wild-type E. coli K-12
- Assay type: cell-based, Escherichia coli
- protocol.conditions: strain K-12; antibiotic alone

compound | MICb Alone / µg/mL
CC(=O)NC[C@H]1CN(c2ccc(N3CCOCC3)c(F)c2)C(=O)O1 | 256
Cc1onc(-c2ccccc2)c1C(=O)N[C@@H]1C(=O)N2[C@@H]1SC(C)(C)[C@@H]2C(=O)O | 512
CC(=O)O[C@H]1C[C@@]2(C)[C@@H](C[C@@H](O)[C@H]3[C@@]4(C)CC[C@@H](O)[C@@H](C)[C@@H]4CC[C@@]32C)/C1=C(\CCC=C(C)C)C(=O)O | 1024
CC[n+]1c(-c2ccccc2)c2cc(N)ccc2c2ccc(N)cc21 [ethidium bromide] | 500

---

- Test system: EKO-35 strains producing different efflux pumps (EKO-35 araC::X)
- protocol: Checkerboard synergy (FICI) of PAβN or NMP with antibiotics
- Type: cell-based, Escherichia coli
- protocol.conditions: strain EKO-35 acrB; antibiotic in combination with NMP
MICb Combined strictly less than 20 µg/mL = y. Otherwise n.

compound | test.target | class.label
CC(=O)O[C@H]1C[C@@]2(C)[C@@H](C[C@@H](O)[C@H]3[C@@]4(C)CC[C@@H](O)[C@@H](C)[C@@H]4CC[C@@]32C)/C1=C(\CCC=C(C)C)C(=O)O | EKO-35 strains producing different efflux pumps (EKO-35 araC::X) | n
CC(=O)NC[C@H]1CN(c2ccc(N3CCOCC3)c(F)c2)C(=O)O1 | EKO-35 strains producing different efflux pumps (EKO-35 araC::X) | y
Cc1onc(-c2ccccc2)c1C(=O)N[C@@H]1C(=O)N2[C@@H]1SC(C)(C)[C@@H]2C(=O)O | EKO-35 strains producing different efflux pumps (EKO-35 araC::X) | y
CC[C@H]1OC(=O)[C@H](C)[C@@H](O[C@H]2C[C@@](C)(OC)[C@@H](O)[C@H](C)O2)[C@H](C)[C@@H](O[C@@H]2O[C@H](C)C[C@H](N(C)C)[C@H]2O)[C@](C)(O)C[C@@H](C)C(=O)[C@H](C)[C@@H](O)[C@]1(C)O | EKO-35 strains producing different efflux pumps (EKO-35 araC::X) | n
CC[n+]1c(-c2ccccc2)c2cc(N)ccc2c2ccc(N)cc21 [ethidium bromide] | EKO-35 strains producing different efflux pumps (EKO-35 araC::X) | y

---

Each item that follows carries a reported Minimum Inhibitory Concentration, K-12.
- Tested on: wild-type E. coli K-12 str. BW25113
- protocol: microbe, parasite or virus in culture
- Type: cell-based, Escherichia coli
- protocol.conditions: Table 13A; non-porinated; technical duplicate

compound | Minimum Inhibitory Concentration, K-12
O=[N+]([O-])c1ccc2c(c1)C(=NO)c1cc([N+](=O)[O-])ccc1-2 [compound 11] | 320 µg/mL
O=C(Nc1cccc(Oc2c(F)c(F)c(F)c(F)c2F)c1)c1ccccc1 [compound 1] | 320 µg/mL
Nc1ccccc1SCc1nc(-c2ccc(Cl)cc2)no1 [compound 16] | 320 µg/mL
CC(C)(C)c1cc(C(=O)NNC(=O)Nc2cccc3ccccc23)n(Cc2ccc(F)cc2)n1 [compound 4] | 320 µg/mL
COC(=O)c1sc(N2CCCC2)c(C#N)c1-c1cccs1 [compound 10] | 160 µg/mL
N#CC(C#N)=NNc1cccc(Cl)c1 [CCCP] | 25 µg/mL
N#CC(=NNc1cccc(C(F)(F)F)c1)C(=O)c1ccsc1 [compound 3] | 320 µg/mL
N#CC(=NNc1ccc(F)c(Cl)c1)C(=O)c1ccc(Cl)cc1 [compound 15] | 320 µg/mL
O=c1oc(-c2ccccc2Cl)nn1-c1ccc(C(F)(F)F)cn1 [compound 5] | 320 µg/mL
Cn1cc(Br)c(-c2cccc(NC(=O)Nc3ccc(OC(F)(F)F)cc3)c2)n1 [compound 14] | 320 µg/mL
O=C(Nc1ccc(C(F)(F)F)cc1)Nc1ccc(C(F)(F)F)cc1 [compound 7] | 320 µg/mL
O=C(Nc1ccccc1C(=O)Nc1nnc(C(F)(F)F)s1)c1ccccc1Cl [compound 19] | 320 µg/mL
O=C(Nc1ccccc1)Nc1ccc(Br)c(C(F)(F)F)c1 [compound 6] | 320 µg/mL
C[n+]1c2cc(N)ccc2cc2ccc(N)cc21.[Cl-] [acriflavine] | 50 µg/mL
N#CC(C#N)=NNc1ccc(-n2ccc(C(F)(F)F)n2)cc1 [compound 8] | 640 µg/mL
C[C@H](CCC(=O)NCCS(=O)(=O)[O-])[C@H]1CC[C@H]2[C@@H]3CC[C@@H]4C[C@H](O)CC[C@]4(C)[C@H]3C[C@H](O)[C@]12C.[Na+] [sodium taurodeoxycholate] | 1000 µg/mL
N#Cc1ccc(-c2c(NC(=O)C(Cl)Cl)oc(-c3cccs3)c2C#N)cc1 [compound 2] | 320 µg/mL
O=C(NC(=O)N1CCc2c([nH]c3ccccc23)C1C(F)(F)F)c1ccccc1 (centres unmarked) [compound 13] | 320 µg/mL
C=C1CCO[C@]2([C@@H](O)[C@@](C)(O)CO)NC(=O)[C@@]1(O)NC2=O [Bicyclomycin] | 200 µg/mL
CC(C)c1ccc(C=C(C#N)c2nc3ccccc3[nH]2)cc1 [compound 12] | 320 µg/mL

---

Each record here notes measured Fold change of MICs.
- System: EKO-35 araC::mdtEF
- protocol: MIC susceptibility profiling, efflux platform
- Format: cell-based, Escherichia coli
- protocol.conditions: EKO-35 araC::mdtEF compared to EKO-35

structure.as.smiles | test.target | Fold change of MICs [fold]
COc1cccc2c1C(=O)c1c(O)c3c(c(O)c1C2=O)C[C@@](O)(C(C)=O)C[C@@H]3O[C@H]1C[C@H](N)[C@H](O)[C@H](C)O1 | EKO-35 araC::mdtEF | 64
CN[C@H](CC(C)C)C(=O)N[C@H]1C(=O)N[C@@H](CC(N)=O)C(=O)N[C@H]2C(=O)N[C@H]3C(=O)N[C@H](C(=O)N[C@H](C(=O)O)c4cc(O)cc(O)c4-c4cc3ccc4O)[C@H](O)c3ccc(c(Cl)c3)Oc3cc2cc(c3O[C@@H]2O[C@H](CO)[C@@H](O)[C@H](O)[C@H]2O[C@H]2C[C@](C)(N)[C@H](O)[C@H](C)O2)Oc2ccc(cc2Cl)[C@H]1O | EKO-35 araC::mdtEF | 1
CC[C@H]1OC(=O)[C@H](C)[C@@H](O[C@H]2C[C@@](C)(OC)[C@@H](O)[C@H](C)O2)[C@H](C)[C@@H](O[C@@H]2O[C@H](C)C[C@H](N(C)C)[C@H]2O)[C@](C)(O)C[C@@H](C)CN(C)[C@H](C)[C@@H](O)[C@]1(C)O | EKO-35 araC::mdtEF | 8
CCn1cc(C(=O)O)c(=O)c2ccc(C)nc21 | EKO-35 araC::mdtEF | 1

---

- System: EKO-35 araC::mexCD Pore
Under this convention, Fulfilled denotes MIC strictly below 0.4 µg/mL and Not fulfilled denotes MIC at or above 0.4 µg/mL.

compound | test.target | class.label
CC(=O)NC[C@H]1CN(c2ccc(N3CCOCC3)c(F)c2)C(=O)O1 [linezolid] | EKO-35 araC::mexCD Pore | Not fulfilled
COc1cccc2c1C(=O)c1c(O)c3c(c(O)c1C2=O)C[C@@](O)(C(C)=O)C[C@@H]3O[C@H]1C[C@H](N)[C@H](O)[C@H](C)O1 [daunorubicin] | EKO-35 araC::mexCD Pore | Not fulfilled
CN(C)c1ccc(O)c2c1C[C@H]1C[C@H]3[C@H](N(C)C)C(O)=C(C(N)=O)C(=O)[C@@]3(O)C(O)=C1C2=O [minocycline] | EKO-35 araC::mexCD Pore | Fulfilled
CN(C)[C@@H]1C(O)=C(C(N)=O)C(=O)[C@@]2(O)C(O)=C3C(=O)c4c(O)cccc4[C@@](C)(O)[C@H]3C[C@@H]12 [tetracycline] | EKO-35 araC::mexCD Pore | Fulfilled
CN[C@H](CC(C)C)C(=O)N[C@H]1C(=O)N[C@@H](CC(N)=O)C(=O)N[C@H]2C(=O)N[C@H]3C(=O)N[C@H](C(=O)N[C@H](C(=O)O)c4cc(O)cc(O)c4-c4cc3ccc4O)[C@H](O)c3ccc(c(Cl)c3)Oc3cc2cc(c3O[C@@H]2O[C@H](CO)[C@@H](O)[C@H](O)[C@H]2O[C@H]2C[C@](C)(N)[C@H](O)[C@H](C)O2)Oc2ccc(cc2Cl)[C@H]1O [vancomycin] | EKO-35 araC::mexCD Pore | Not fulfilled
C[C@@H]1O[C@@H]1P(=O)(O)O [fosfomycin] | EKO-35 araC::mexCD Pore | Not fulfilled

---

- Test system: EKO-35 porinated strain expressing acrB
- protocol: Checkerboard synergy (FICI), porinated strain
- Type: cell-based, Escherichia coli
- protocol.conditions: EKO-35 acrB Pore; NMP + antibiotic

compound | FICI
CC[n+]1c(-c2ccccc2)c2cc(N)ccc2c2ccc(N)cc21 [ethidium bromide] | 0.191
CC(=O)O[C@H]1C[C@@]2(C)[C@@H](C[C@@H](O)[C@H]3[C@@]4(C)CC[C@@H](O)[C@@H](C)[C@@H]4CC[C@@]32C)/C1=C(\CCC=C(C)C)C(=O)O | 0.500
Cc1onc(-c2ccccc2)c1C(=O)N[C@@H]1C(=O)N2[C@@H]1SC(C)(C)[C@@H]2C(=O)O | 0.500
CC[C@H]1OC(=O)[C@H](C)[C@@H](O[C@H]2C[C@@](C)(OC)[C@@H](O)[C@H](C)O2)[C@H](C)[C@@H](O[C@@H]2O[C@H](C)C[C@H](N(C)C)[C@H]2O)[C@](C)(O)C[C@@H](C)C(=O)[C@H](C)[C@@H](O)[C@]1(C)O | 0.563
CC(=O)NC[C@H]1CN(c2ccc(N3CCOCC3)c(F)c2)C(=O)O1 | 0.250

Values compiled from patent US20230407243A1.
